# Test: Aqueous equilibrium solubility of compound in pH 6.8 phosphate buffer solution incubated overnight by shake flask based high throughput assay
# Assay type: physicochemical
Quantity: solubility thermodynamic (µM)
Supply the numeric figure in µM, leaving out any unit text.

CN(C)CCOc1cc(NC(=O)N2CCCc3ccc(C=O)nc32)ncc1C#N : 300

Now look at this one.
In: Entry CN(C)CCOc1cc(NC(=O)N2CCCc3cccnc32)ncc1C#N needs its solubility thermodynamic filled in; supply it.
Out: 173

* * *

# Test: Thermodynamic solubility of compound in pH 6.8 phosphate buffer solution incubated overnight on shaker by shake flask based HPLC analysis
# Type: physicochemical
# Assay Setup: read-out: Therm_solubility
Quantity: solubility thermodynamic

O=Cc1ccc2cccc(C(=O)Nc3ccc(C(F)(F)F)cn3)c2n1 : < 2.9 µM

Now look at this one.
In: Entry O=Cc1ccc2c(n1)N(C(=O)Nc1ccc(C(F)(F)F)cn1)CCC2 needs its solubility thermodynamic filled in; supply it.
Out: 4.9 µM

* * *

Examples of compounds with documented solubility thermodynamic follow.
# Test: Aqueous equilibrium solubility of compound in pH 6.8 phosphate buffer solution incubated overnight by shake flask based high throughput assay
# Assay type: physicochemical

Examples with answers:
COCCNc1cc(NC(=O)N(CCOC)c2cccc(C=O)n2)ncc1C#N : > 1000 µM
O=Cc1ccc2cccc(C(=O)Nc3ccc(C(F)(F)F)cn3)c2n1 : < 4 µM

Now look at this one.
In: Entry O=Cc1ccc2c(n1)N(C(=O)Nc1ccc(C(F)(F)F)cn1)CCC2 needs its solubility thermodynamic filled in; supply it.
Out: < 4 µM
